# Lookup of reported pIC50 keyed by entry
Target: Human immunodeficiency virus type 1 integrase (Human immunodeficiency virus 1)
Sequence (Q7ZJM1 whole entry): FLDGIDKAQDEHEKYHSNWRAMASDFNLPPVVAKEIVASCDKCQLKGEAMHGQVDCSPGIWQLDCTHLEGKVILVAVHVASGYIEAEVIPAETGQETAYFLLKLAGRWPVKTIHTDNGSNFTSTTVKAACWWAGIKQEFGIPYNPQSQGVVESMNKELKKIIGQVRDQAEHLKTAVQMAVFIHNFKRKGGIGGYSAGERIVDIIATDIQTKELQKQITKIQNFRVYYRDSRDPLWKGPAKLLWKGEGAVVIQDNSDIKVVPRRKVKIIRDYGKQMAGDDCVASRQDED
Assay: Inhibition of HIV1 integrase by BioVeris assay
Please note pIC50 is a logarithmic value: minus log10 of concentration in mol/L. Answer with that number alone.

[
  {
    "chemicalStructure": "Cc1n[nH]c(O)c1C(c1ccc(-c2ccc(Cl)c(C(=O)O)c2)o1)c1c(O)n[nH]c1C",
    "reading": 3.92
  },
  {
    "chemicalStructure": "C=C(NNC(=O)c1c[nH]c2ccccc12)c1cccc(NC(=O)CCCC(=O)O)c1",
    "reading": 3.85
  },
  {
    "chemicalStructure": "O=C(O)CCC(=O)Nc1ccccc1-c1ccccc1NC(=O)CCC(=O)O",
    "reading": 4.43
  }
]

Let's switch to this molecule now.
*Q* Entry "CC(C)n1nc(C(=O)NN/C(=C/CC(=O)O)c2ccc(Br)cc2)c2ccccc2c1=O" : reported pIC50 = ?
*A* 3.17
